# IC50 annotations
Test system: Leishmania major
Test: Antileishmanial activity against Leishmania major amastigotes assessed as inhibition of parasite growth incubated for 48 hrs by alamar blue reagent based ELISA
Format: functional, organism-based
Please provide the amount together with its unit, number first.

Worked cases, answers included:
[[record]]
smiles_data = "NNS(=O)(=O)c1ccc([N+](=O)[O-])o1"
observation_type = "IC50"
observed_measurement = "5.75 µM"

[[record]]
smiles_data = "CC(C)c1ccc(S(=O)(=O)/N=N/Cc2ccc([N+](=O)[O-])o2)cc1"
observation_type = "IC50"
observed_measurement = "4.71 µM"

[[record]]
smiles_data = "Cc1ccn2c(C(=O)N3CCN(CCn4cc(-c5ccc(C(C)(C)C)cc5)nn4)CC3)c(C)nc2c1"
observation_type = "IC50"
observed_measurement = "15.1 µM"

[[record]]
smiles_data = "Cc1ccn2c(C(=O)N3CCN(CCc4cn(-c5cccc(Cl)c5)nn4)CC3)c(C)nc2c1"
observation_type = "IC50"
observed_measurement = "15.1 µM"

[[record]]
smiles_data = "CCc1ccc(-n2cc(CCN3CCN(C(=O)c4c(C)nc5cc(C)ccn45)CC3)nn2)cc1"
observation_type = "IC50"
observed_measurement = "15.1 µM"

[[record]]
smiles_data = "Cc1ccn2c(C(=O)N3CCN(CCc4cn(-c5ccc(Br)cc5)nn4)CC3)c(C)nc2c1"
observation_type = "IC50"
observed_measurement = "15.1 µM"


Proceed to the following item.
Challenge: Bench note: what IC50 did `CCCCCCCCCc1cn(CCN2CCN(C(=O)c3c(C)nc4cc(C)ccn34)CC2)nn1` show?
Response given: 15.1 µM
